B1: NP_006221.1 (parent)
chain: CQPISFSGFGAEDDDLGGLGLGP

# Variants of: B1
# PROCEDURE DETAILS: protein stability index of a GFP-peptide fusion (GPS, HEK-293T) (PSI 1-6); higher = more stable;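 note: lentivirally expressed fusion library, cells FACS-sorted into six equal-sized GFP/DsRed ratio bins, PSI computed from sequencing read fractions per bin weighted by bin number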
# CONDITION INFO: c terminus: native
QUANTITY KIND: protein stability index

These recorded examples may help you get a feel for the data.
VARIANT SPEC	protein stability index
F9W	2.53
S5H	2.42
S5F	2.29
L21C	3.02
S5D	2.69
G10S	1.95

# map each variant to its protein stability index
1. I4Y
2. A11E
3. E12C
4. P23R
5. G8P

[2.09, 2.02, 2.43, 2.95, 3.55]

# map each variant to its protein stability index
1. G10E
2. S5M
3. L16F
4. P23E

1. 2.08
2. 2.46
3. 2.23
4. 4.96
